Cited source: PubChem BioAssay AID330

In this section, each of the compounds is paired with its reported T/C.
Tested on: P388 leukemia ip, CD2F1 mice, survival T/C
test_protocol: NCI In Vivo Anticancer Drug Screen. Data for tumor model P388 Leukemia (intraperitoneal) in CD2F1 (CDF1) mice
assay_conditions: endpoint: median survival time; dose: 100.0 mg/kg/injection; schedule: Q01DX009 (ip); vehicle: saline with Tween-80; higher = longer survival
Toxic doses and inconclusive results are not listed.
readout: T/C

INSERT INTO measurements (compound, result_value) VALUES
  ('CCCCCCCCCCCCCCCCOc1ccc(/C=N/Nc2ccccc2)cc1OC', '93 % of control'),
  ('CCn1c2ccccc2c2cc(N=Nc3cc4ccccc4[nH]3)ccc21', '113 % of control'),
  ('COc1ccc(-c2coc3cc(OC4OC(COC5OC(CO)C(O)C(O)C5O)C(O)C(O)C4O)cc(O)c3c2=O)cc1 (stereo not given)', '93 % of control'),
  ('O=[N+]([O-])CC(OCCCCO)C(Cl)(Cl)Cl (stereo not given)', '96 % of control'),
  ('COC(=O)CCCc1ccc(OC)c(OC)c1', '89 % of control'),
  ('CN1c2ccc(Cl)cc2C(=O)NC1c1ccc([N+](=O)[O-])s1 (stereo not given)', '108 % of control'),
  ('O=C1CCC(N2C(=O)CC3(CCCC3)C2=O)C(=O)N1c1ccc([N+](=O)[O-])cc1 (stereo not given)', '109 % of control'),
  ('CC(=O)Nc1ccc(/C=N/NC(=O)CNC(=O)Nc2cccc(Cl)c2Cl)cc1', '89 % of control'),
  ('N#Cc1c(N)nc2c(c1N)CC(CCl)O2 (stereo not given)', '96 % of control'),
  ('Cn1c(=O)nc2n(C)c3ccccc3cc-2c1=O', '116 % of control'),
  ('Clc1cccn2cnnc12', '103 % of control'),
  ('Cc1ccc2c(c1)=N/C(=N\c1nc(O)c(O)[nH]1)N=2', '106 % of control'),
  ('O=S1(=O)CC(N2CCCCC2)C2=C(O1)c1ccccc1N(c1ccccc1)C2 (stereo not given)', '96 % of control'),
  ('Cc1ccc(S(=O)c2cc(C(C)(C)C)cc(C(C)(C)C)c2O)cc1 (stereo not given)', '110 % of control'),
  ('CC(=O)CC(=O)CCCCCCCCCCCC(=O)O', '98 % of control'),
  ('Nc1cc(N)cc(C(=O)c2ccccc2)c1', '95 % of control'),
  ('Nc1nc2c(C(=O)N3CCCC3)nnn2c2ccccc12', '94 % of control'),
  ('Nc1ccc2c(n1)NCC/C2=N\Nc1ccccc1', '96 % of control'),
  ('NC(=S)/N=C(/N)NC(=O)c1ccccc1', '86 % of control'),
  ('COc1cc2c(cc1OC)C1Cc3ccc4cc(OC)c(OC)cc4c3CN1CC2 (stereo not given)', '95 % of control'),
  ('CC(=O)Nc1cc(C)ccc1O', '95 % of control'),
  ('CCOC(=O)c1[nH]c2ccc(O)c3c2c1CCC3=O', '88 % of control'),
  ('NNC(=O)c1ccc(Cl)cc1', '96 % of control'),
  ('O=C(NCCNC(=O)Nc1ccccc1S(=O)(=O)F)Nc1ccccc1S(=O)(=O)F', '97 % of control'),
  ('O=C(O)C(Cc1ccccc1F)NC(=O)C(F)(F)F (stereo not given)', '94 % of control'),
  ('CC(=O)N(c1nc2ccccc2n1C)C(C)C', '115 % of control'),
  ('CCCCN1C(=O)/C(=C/c2ccco2)SC1=S', '104 % of control'),
  ('Nn1c(=S)[nH]nc(/C=C/c2ccc3c(c2)OCO3)c1=O', '91 % of control'),
  ('CCCCCCCCC#CC(=O)OC', '92 % of control'),
  ('Cc1ncc(C(N)=O)c(N)n1', '104 % of control');
